Reference for the values: paper PMC12809495

Target: 14-3-3 isoform gamma (Homo sapiens)
Construct: His6; made in house; host or cells: Escherichia coli BL21 Rosetta (DE3)
Sequence (P61981 whole entry, canonical isoform): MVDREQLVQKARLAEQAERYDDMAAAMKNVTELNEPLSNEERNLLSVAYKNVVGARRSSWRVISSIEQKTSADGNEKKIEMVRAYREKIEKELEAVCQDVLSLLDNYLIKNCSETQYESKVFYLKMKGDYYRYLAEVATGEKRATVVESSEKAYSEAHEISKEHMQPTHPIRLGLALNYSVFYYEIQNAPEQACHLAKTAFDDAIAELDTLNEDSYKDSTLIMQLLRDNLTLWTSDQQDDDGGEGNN
Experiment: Label-free microscale thermophoresis (MST) binding, 14-3-3 gamma
Conditions: 0.6 µM 14-3-3 protein, 25 mM MES pH 6.5, 5 mM MgCl2, 5 mM CaCl2, 25°C, Kd from duplicate measurements, aggr. = no successful experiment
Where a SMILES comes first, the peptide text is derived from it. [ ]: non-standard residue; d: D form. pS = N[C@@H](COP(=O)(O)O)C(=O)O
quantity-name: Affinity estimates by MicroScale Thermophoresis, 14-3-3 isoform gamma (Kd)

compound: CC(C)C[C@H](NC(=O)[C@@H](N)C(C)C)C(=O)N[C@@H](CO)C(=O)N[C@@H](CO)C(=O)N[C@@H](CO)C(=O)N[C@@H](COP(=O)(O)O)C(=O)N[C@@H](CS)C(=O)NCC(=O)N[C@@H](CO)C(=O)N[C@@H](CC(N)=O)C(=O)N[C@@H](CO)C(=O)O [Sirt1^pS670] (H-VLSSS[pS]CGSNS-OH)
observed-measurement: aggr.
--
compound: CC[C@H](C)[C@H](NC(=O)[C@H](CO)NC(=O)[C@@H](N)CCCNC(=N)N)C(=O)N[C@@H](CO)C(=O)N[C@@H](Cc1ccccc1)C(=O)N[C@@H](COP(=O)(O)O)C(=O)N[C@H](C(=O)NCC(=O)N[C@@H](C)C(=O)N[C@@H](CO)C(=O)N[C@@H](CO)C(=O)O)C(C)C [Sirt3^pS105] (H-RSISF[pS]VGASS-OH)
observed-measurement: aggr.
--
compound: CC[C@H](C)[C@H](NC(=O)[C@H](CO)NC(=O)[C@H](CCCNC(=N)N)NC(=O)[C@H](CCCNC(=N)N)NC(=O)CN)C(=O)N[C@@H](CO)C(=O)N[C@@H](Cc1ccccc1)C(=O)N[C@@H](CO)C(=O)N[C@H](C(=O)NCC(=O)N[C@@H](C)C(=O)O)C(C)C [Sirt3^S103] (H-GRRSISFSVGA-OH)
observed-measurement: aggr.
--
compound: CC[C@H](C)[C@H](NC(=O)[C@H](CO)NC(=O)[C@H](CCCNC(=N)N)NC(=O)[C@H](CCCNC(=N)N)NC(=O)CN)C(=O)N[C@@H](COP(=O)(O)O)C(=O)N[C@@H](Cc1ccccc1)C(=O)N[C@@H](CO)C(=O)N[C@H](C(=O)NCC(=O)N[C@@H](C)C(=O)O)C(C)C [Sirt3^pS103] (H-GRRSI[pS]FSVGA-OH)
observed-measurement: aggr.
